# Test system: KM12 colon
# Assay text: NCI tumour cell line growth inhibition, 48 h
Property: TGI; scope: individual molecules
Measurement type: TGI

Molecule | Measurement type | Measured result
N#Cc1cc(-c2cc3ccccc3o2)oc1N | TGI | 11.8 µM
C1=Cc2cc3c(c4nccc(c24)N1)OCO3 | TGI | 23.6 µM
C=CCCC1(CC(Sc2ccccc2)P(=O)(c2ccccc2)c2ccccc2)OCCO1 (configuration not stated) | TGI | > 10 µM
CCc1nc(N)nc(N)c1-c1ccc(NC)c([N+](=O)[O-])c1 | TGI | > 100 µM
CCN1CCN(c2nc3ccccc3c3c2CCOc2ccccc2-3)CC1 | TGI | > 56 µM
Cc1cc(C(=O)Nc2ccc3cc(CN4CCOCC4)ccc3n2)c(C)n1-c1ccccc1 | TGI | 4.66 µM
CC(=O)O[C@H]1C(=O)[C@@]2(C)[C@H]([C@H](OC(=O)c3ccoc3)[C@]3(O)C[C@H](OC(=O)[C@H](O)[C@@H](NC(=O)c4ccccc4)c4ccccc4)C(C)=C1C3(C)C)[C@]1(OC(C)=O)CO[C@@H]1C[C@@H]2O | TGI | > 12.5 µM
CN(C)CC1CCCC(CN(C)C)C1OC(=O)c1ccccc1 (configuration not stated) | TGI | > 100 µM
CCOC(=O)Cn1c(=O)ccn(COCCO)c1=O | TGI | > 100 µM
COc1ccc(C2=C(Cl)c3cc(OC)c(OC)cc3C2Cl)cc1 (configuration not stated) | TGI | 26.4 µM
C=C(C)[C@H]1Cc2c(ccc3c2O[C@@H]2COc4cc(OC)c(OC)cc4[C@@H]2C3=O)O1 | TGI | 14.3 µM
COCCCNc1nc(N)c(C#N)c(C#N)c1C#N | TGI | > 10 µM
CCOC(=O)CNC(=O)N(CC)C12CC3CC(CC(C3)C1)C2 | TGI | 453 µM
CC/C=C\C[C@H](O)C/C=C1/C(=O)C=C[C@@H]1C/C=C\CCCC(=O)OC | TGI | 5.02 µM
O=C1c2cccnc2-c2nc(-c3ccc(Cl)cc3)cc3c2c1nc1ccccc13 | TGI | > 100 µM
CCCCC(CC)COC(=O)C[N+](C)(C)CCOC(c1ccccc1)c1ccccc1 (configuration not stated) | TGI | 3.44 µM
CC1CCCCNC1=S (configuration not stated) | TGI | > 10 µM
CN(C)CCC1(C2=CCCC2)CC/C(=C\c2ccc(Cl)cc2)C1=O (configuration not stated) | TGI | 23.6 µM
CCN(CC)CCSc1c2cc(OC)ccc2nc2ccc(OC)cc12 | TGI | > 71 µM
CCO/C=N\C1=C(C#N)SC2=N/C(=C\c3ccc(OC)cc3)C(=O)N21 | TGI | > 100 µM
C(/C=C/Nc1ccc(Oc2ccccc2)cc1)=Nc1ccc(Oc2ccccc2)cc1 | TGI | 30.3 µM
COc1cc(OC)c2c(C)cc(=O)oc2c1 | TGI | > 100 µM
Nc1nc(Nc2cccnc2)sc1C(=O)c1ccccc1F | TGI | 32.5 µM
Cc1[nH]c(=O)nc2[nH][nH]c(=O)c12 | TGI | > 100 µM
CN(C(=O)Cc1cccc(N=C=S)c1)[C@H]1CCCC[C@@H]1N1CCCC1 | TGI | 32.1 µM
N#C/C(=C/NC(N)=S)C(N)=O | TGI | > 100 µM
COc1ccc2[nH]c3c4[nH]c5ccc(OC)cc5c4c4c(c3c2c1)C(=O)NC4=O | TGI | > 25 µM
COc1ccccc1CNCCCN1C(=O)c2ccc3c4c(ccc(c24)C1=O)C(=O)N(CCCNCCNCCCN)C3=O | TGI | 11.4 µM
O=Cc1ccccc1COC(=O)c1cc(C(=O)OCc2ccccc2C=O)c(C(=O)OCc2ccccc2C=O)cc1C(=O)OCc1ccccc1C=O | TGI | > 100 µM
Cc1nnc(NS(=O)(=O)c2ccc(N=Nc3cc(N=Nc4ccc(S(=O)(=O)Nc5nnc(C)s5)cc4)c4c(NC(=O)C(Cl)Cl)cccc4c3OC(=O)C(Cl)Cl)cc2)s1 (tested in a mixture with another compound) | TGI | > 100 µM
Nc1nc(-c2ccccc2)cc(-c2ccc(OCc3ccccc3)cc2O)n1 | TGI | > 100 µM
O=[N+]([O-])c1ccc(S(=O)(=O)n2c3ccc(Br)cc3c3nc4ccccc4nc32)cc1 | TGI | > 100 µM
N#CCCC(CCC#N)(CCC#N)NO | TGI | > 100 µM
COc1cc2oc(-c3ccc(O)cc3)c(OC)c(=O)c2c(O)c1OC | TGI | > 100 µM
S=c1ssc(N2CCOCC2)c1Cl | TGI | > 100 µM
COc1ccc(-c2[nH]c3ccc(OC)cc3c2/C=C(\C#N)S(=O)(=O)c2ccccc2)cc1 | TGI | 7.69 µM
CC1=CC(C)(C)N=C2SC(c3ccc(N)cc3)=NN12 | TGI | > 100 µM
O=C(CCc1nc(=S)[nH][nH]1)Nc1ccccc1Cl | TGI | > 100 µM
COC(=O)c1cc2c(cc1CC(Cc1ccc3c(c1)CCCC3)C(=O)OC)CCCC2 (configuration not stated) | TGI | > 100 µM
CC(=O)ONC(C(=O)C(C)(C)C)C(=O)C(C)(C)C | TGI | > 100 µM
CCOC(=O)/C(C)=C(/O)C(=O)OCC | TGI | > 100 µM
CN(C)CCNc1ccc(CO)c2oc3ccc(O)cc3c(=O)c12 | TGI | 40 µM
